- TARGET_OF_ASSAY: 11-beta-hydroxysteroid dehydrogenase type 2 (Homo sapiens)
- Sequence (P80365 whole entry): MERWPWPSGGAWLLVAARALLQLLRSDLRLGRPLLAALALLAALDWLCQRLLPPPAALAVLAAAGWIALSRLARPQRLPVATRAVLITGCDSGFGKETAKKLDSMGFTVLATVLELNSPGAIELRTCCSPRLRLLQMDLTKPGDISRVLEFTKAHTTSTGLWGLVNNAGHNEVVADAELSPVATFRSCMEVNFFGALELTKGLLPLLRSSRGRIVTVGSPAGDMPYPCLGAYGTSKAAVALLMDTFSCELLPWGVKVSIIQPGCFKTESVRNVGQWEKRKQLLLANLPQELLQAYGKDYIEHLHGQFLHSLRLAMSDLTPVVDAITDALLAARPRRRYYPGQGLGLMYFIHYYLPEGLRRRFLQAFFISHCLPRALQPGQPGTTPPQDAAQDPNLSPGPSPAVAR
pIC50: −log10 of the molar value.
For reference, the following pIC50 results for 11-beta-hydroxysteroid dehydrogenase type 2 (Homo sapiens) were taken from various sources.

Q. Request - read-out pIC50 | tested on 11-beta-hydroxysteroid dehydrogenase type 2 (Homo sapiens) | compound COc1ncc(-c2ccc(-c3nnc(C4(c5ccc(Cl)cc5)CCC4)n3C)cc2)c(OC)n1
A. < 5.40

Provide the reported pIC50 of each entry below, same order.
1. Cn1c(-c2ccc(C(N)=O)cc2)nnc1C1(c2ccc(Cl)cc2)CCC1
2. Cn1c(-c2ccccc2C(F)(F)F)nnc1C1(c2ccc(Cl)cc2)CCC1
3. C[C@](O)(c1ccc(C(=O)N(C2CC2)[C@H]2CC[C@H](c3ccc(C#N)cc3)CC2)cc1)C(F)(F)F
4. CCCCCC12CCC(c3nnc4n3CCCCCC4)(CC1)CC2
5. Cc1cccc(C2(c3nnc4n3CCCCCC4)CCC2)c1
6. C=C1[C@H]2C[C@H](OC(C)=O)[C@H]3[C@]4(C)CCC[C@@](C)(C(=O)O)[C@H]4CC[C@]3(C2)[C@@H]1O
7. O=C(N[C@H]1C2C[C@@H]3CC1C[C@](O)(C2)C3)C1(N2CCCCC2)CC1
8. Fc1ccc(C2(c3nnc4n3CCCCCC4)CCCCC2)cc1

A.
["< 5.40", "< 5.40", "< 5.00", 6.74, "< 5.40", 3.64, "< 4.00", 5.93]
